Test system: NCI-H196 (Small Cell Lung Carcinoma)
assay_name: combination Emax (second highest fraction inhibited in the dose matrix, 72 h); higher = more inhibition; extreme values may be limits of the assay
measured_endpoint: combination Emax

• NC1(C(=O)N[C@@H](CCO)c2ccc(Cl)cc2)CCN(c2ncnc3[nH]ccc23)CC1 [Capivasertib] + CC(=O)c1c(C)c2cnc(Nc3ccc(N4CCNCC4)cn3)nc2n(C2CCCC2)c1=O [Palbociclib] (first compound max 10 µM, 7x7, partner max 10 µM) = 0.258
• CN(C)CCCOc1ccc(-c2ccc3ncc4c(c3c2)n(C2CCOCC2)c(=O)n4C)cn1 [AZD0156] + CCN(CCO)CCCOc1ccc2c(Nc3cc(CC(=O)Nc4cccc(F)c4)[nH]n3)ncnc2c1 [AZD2811] (first compound max 1 µM, 7x7, partner max 1 µM) = 0.0373
